Entry source: patent US9593305B2

test system: H1 human embryonic stem cells; assay: Analog screening with GDF-8 and growth factor/agonist pool (Example 8, Tables 7 and 8); format: cell-based; conditions: EGF, FGF, PDGF-A, VEGF, PDGF-D, muscimol, GDF8
MEASURED_PARAMETER: Cell Number, Average Total Cell Number
When you answer, write just the number.

Recorded results for 2 compounds are shown here.
>  <COMPOUND>
CN1CCC(=O)NCCCc2cncc(c2)-c2ncnc(n2)Nc2cccc(c2)C1 [Compound 19]

>  <TEST_VALUE>
7799

$$$$
>  <COMPOUND>
O=C1NCCCc2cncc(c2)-c2ncnc(n2)Nc2cccc(c2)CN2CCC[C@@H]12 [Compound 18]

>  <TEST_VALUE>
8742

$$$$

Note down Cell Number, Average Total Cell Number recorded for CN1CCCC(=O)NCCCc2cncc(c2)-c2ncnc(n2)Nc2cccc(c2)C1 [Compound 20]
9434

Note down Cell Number, Average Total Cell Number recorded for O=C1NCCCc2cncc(c2)-c2ncnc(n2)Nc2cccc(c2)CN2CCCC1C2 (centres unmarked) [Compound 17]
7988

Note down Cell Number, Average Total Cell Number recorded for CCN1CC(=O)NCCCc2cccc(c2)-c2ncnc(n2)Nc2cccc(c2)C1 [Compound 15]
7234
